Target: chicken BEST1 (bestrophin 1) (Gallus gallus)
Sequence (A0A8V0ZZU7 1-405): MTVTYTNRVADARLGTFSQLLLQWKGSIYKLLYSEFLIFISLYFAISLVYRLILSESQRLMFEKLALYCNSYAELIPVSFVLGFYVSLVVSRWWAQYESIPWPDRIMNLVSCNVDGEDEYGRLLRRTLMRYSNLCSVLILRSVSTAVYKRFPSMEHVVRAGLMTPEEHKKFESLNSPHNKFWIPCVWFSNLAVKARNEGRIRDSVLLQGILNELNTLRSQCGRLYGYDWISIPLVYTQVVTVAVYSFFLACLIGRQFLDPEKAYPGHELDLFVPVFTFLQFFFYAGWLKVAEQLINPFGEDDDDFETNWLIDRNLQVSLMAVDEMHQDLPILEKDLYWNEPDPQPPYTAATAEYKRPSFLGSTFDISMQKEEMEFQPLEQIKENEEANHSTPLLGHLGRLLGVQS
Assay: cryo-EM structure with […] GABA
pEC50: −log10 of the molar value.
measurementKind: pEC50

INPUT: Looking for the measured pEC50 of `NCCCC(=O)O` , can you help?
OUTPUT: ~2.70
